Observed pIC50 for UniProt B4URF0, reported per entry below.
The quantity pIC50 is defined as the negative base-10 logarithm of the molar concentration.

Requested read-out: pIC50. Entry: CCOC(=O)C1C(=O)NC(NC(C)=O)=NC1c1ccccc1F (centres undefined) 4.33

Similarly, CCOC(=O)C1C(=O)NC(NC(C)=O)=NC1c1ccccc1Cl (centres undefined) ? 4.44

Cool, now CCOC(=O)C1C(=O)NC(N)=NC1c1ccc(Br)cc1 (centres undefined) 3.90

Try this compound next: CCOC(=O)C1C(=O)NC(NC(C)=O)=NC1c1ccccc1 (centres undefined) 4.24

Lookup CCOC(=O)C1C(=O)NC(N)=NC1c1ccc([N+](=O)[O-])cc1 (centres undefined) 3.72

Repeat for the following compound: CCOC(=O)C1C(=O)NC(NC(C)=O)=NC1c1ccc(N(C)C)cc1 (centres undefined) 3.86

Try CCOC(=O)C1C(=O)NC(N)=NC1c1ccc(Br)cc1F (centres undefined) next. 3.92

Now this one: CCOC(=O)C1C(=O)NC(N)=NC1c1ccccc1F (centres undefined) 4.05

Also, CCOC(=O)C1C(=O)NC(NC(=O)C(F)(F)F)=NC1c1ccc(Br)cc1 (centres undefined) please. 4.16

Next: CCOC(=O)C1C(=O)NC(NC(C)=O)=NC1c1ccc(F)cc1 (centres undefined) 4.02

What do we get for CCOC(=O)C1C(=O)NC(N)=NC1c1ccc(F)cc1 (centres undefined) ? 3.84

Similarly, CCOC(=O)C1C(=O)NC(NC(C)=O)=NC1c1ccc(Br)cc1 (centres undefined) ? 4.15

Consider next the compound CCOC(=O)C1C(=O)NC(NC(C)=O)=NC1c1ccc(OC)cc1 (centres undefined) in the same way. 3.78

Now consider CCOC(=O)C1C(=O)NC(NC(C)=O)=NC1c1ccc(Cl)cc1 (centres undefined) and answer again. 4.05

Try CCOC(=O)C1C(=O)NC(N)=NC1c1ccccc1[N+](=O)[O-] (centres undefined) next. 4.12

# repeat for CCOC(=O)C1C(=O)NC(N)=NC1c1ccccc1 (centres undefined) 3.89

Next compound up: CCOC(=O)C1C(=O)NC(NC(=O)CC)=NC1c1ccc(Br)cc1 (centres undefined) 3.97

Same question, CCOC(=O)C1C(=O)NC(N)=NC1c1ccc(Cl)cc1 (centres undefined) this time 3.96

Same question, CCOC(=O)C1C(=O)NC(NC(C)=O)=NC1c1ccc([N+](=O)[O-])cc1 (centres undefined) this time 3.84

====

- TARGET: Neuraminidase (Influenza A virus, UniProt B4URF0)
- Sequence (B4URF0 whole entry): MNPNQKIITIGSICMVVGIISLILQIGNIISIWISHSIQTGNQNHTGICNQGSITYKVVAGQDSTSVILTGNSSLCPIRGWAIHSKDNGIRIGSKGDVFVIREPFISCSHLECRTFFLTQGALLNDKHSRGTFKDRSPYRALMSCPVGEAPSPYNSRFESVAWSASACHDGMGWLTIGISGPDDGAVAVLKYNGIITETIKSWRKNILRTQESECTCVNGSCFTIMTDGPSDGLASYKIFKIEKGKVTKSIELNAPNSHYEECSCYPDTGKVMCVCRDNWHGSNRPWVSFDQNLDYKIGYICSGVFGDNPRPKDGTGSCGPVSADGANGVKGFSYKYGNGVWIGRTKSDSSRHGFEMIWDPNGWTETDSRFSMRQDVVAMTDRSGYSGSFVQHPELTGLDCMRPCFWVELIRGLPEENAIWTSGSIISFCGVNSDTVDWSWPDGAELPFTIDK
pIC50: −log10 of the molar value.
Please mark true if the recorded pIC50 is equal to or greater than 4, and false if it falls below.

Determine whether measured pIC50 meets or exceeds 4 for CCOC(=O)C1C(=O)NC(NC(C)=O)=NC1c1ccc(Br)cc1F (stereo not given) true

Also check CCOC(=O)C1C(=O)NC(NC(C)=O)=NC1c1ccc(OC)c(OC)c1 (stereo not given) false

How about CCOC(=O)C1C(=O)NC(NC(C)=O)=NC1c1ccc(C)cc1 (stereo not given) ? false

Would you mind doing CCOC(=O)C1C(=O)NC(NC(C)=O)=NC1c1ccccc1[N+](=O)[O-] (stereo not given) as well? true

How about CCOC(=O)C1C(=O)NC(NC(C)=O)=NC1C(C)C (stereo not given) ? false

Also, CCOC(=O)C1C(=O)NC(NC(C)=O)=NC1c1ccc(Cl)cc1Cl (stereo not given) please. true

Ok, now CCOC(=O)C1C(=O)NC(N)=NC1c1ccco1 (stereo not given) false

Can you check CCOC(=O)C1C(=O)NC(N)=NC1c1ccc(OC)cc1 (stereo not given) next? false

====

pIC50: −log10 of the molar value.
# Neuraminidase (Influenza A virus): pIC50 values follow

Can you look up pIC50 on Neuraminidase (Influenza A virus) for CCOC(=O)C1C(=O)NC(N)=NC1c1ccc(N(C)C)cc1 (stereo not given) ? < 3.70

Would you kindly repeat that for CCOC(=O)C1C(=O)NC(NC(C)=O)=NC1c1ccco1 (stereo not given) ? < 3.70

// query: CCOC(=O)C1C(=O)NC(N)=NC1c1ccc(OC)c(OC)c1 (stereo not given) < 3.70

Another compound to check: CCOC(=O)C1C(=O)NC(N)=NC1c1ccc(C)cc1 (stereo not given) < 3.70

What do you have for CCOC(=O)C1C(=O)NC(N)=NC1C(C)C (stereo not given) ? < 3.70
